target: human TLR8 (Homo sapiens (Human), UniProt Q9NR97); test: TLR8 inhibition reporter assay (HEK-Blue SEAP); details: read-out: TLR8 IC50; HEK-Blue cells overexpressing human TLR8, R848 15.9 μM stimulation, SEAP reporter
Sequence (Q9NR97 27-1041): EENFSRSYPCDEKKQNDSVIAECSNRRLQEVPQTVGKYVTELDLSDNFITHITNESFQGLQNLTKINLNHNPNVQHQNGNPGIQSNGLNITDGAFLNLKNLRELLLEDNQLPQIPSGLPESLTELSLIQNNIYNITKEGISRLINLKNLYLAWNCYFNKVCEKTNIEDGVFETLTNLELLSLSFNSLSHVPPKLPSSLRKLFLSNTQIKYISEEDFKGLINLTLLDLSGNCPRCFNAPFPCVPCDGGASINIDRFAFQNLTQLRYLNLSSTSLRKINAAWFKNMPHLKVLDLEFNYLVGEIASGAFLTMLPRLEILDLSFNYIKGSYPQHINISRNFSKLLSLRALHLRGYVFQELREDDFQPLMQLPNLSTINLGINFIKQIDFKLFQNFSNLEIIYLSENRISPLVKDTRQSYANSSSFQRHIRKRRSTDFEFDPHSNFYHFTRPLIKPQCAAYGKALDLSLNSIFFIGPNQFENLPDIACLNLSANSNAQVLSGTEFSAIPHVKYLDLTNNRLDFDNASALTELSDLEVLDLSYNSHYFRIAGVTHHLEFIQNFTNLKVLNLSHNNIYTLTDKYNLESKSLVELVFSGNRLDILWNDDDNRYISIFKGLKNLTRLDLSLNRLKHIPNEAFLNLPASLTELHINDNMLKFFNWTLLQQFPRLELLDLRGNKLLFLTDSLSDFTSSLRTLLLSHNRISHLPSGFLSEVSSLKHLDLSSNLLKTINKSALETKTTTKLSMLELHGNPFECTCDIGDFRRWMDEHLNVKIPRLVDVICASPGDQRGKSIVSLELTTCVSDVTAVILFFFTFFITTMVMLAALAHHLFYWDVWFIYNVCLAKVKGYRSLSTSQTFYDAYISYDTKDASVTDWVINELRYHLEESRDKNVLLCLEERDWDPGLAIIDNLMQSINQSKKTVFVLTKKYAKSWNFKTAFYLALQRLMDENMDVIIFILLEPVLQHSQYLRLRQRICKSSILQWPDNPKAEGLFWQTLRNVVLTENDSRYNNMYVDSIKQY
OBSERVABLE: IC50 (nM)

Take a look at these entries with their results.
INSERT INTO results (molecule, observable, observed_measurement) VALUES
  ('Cc1c(-c2[nH]c3ccc(N4CCN(C(=O)CCN(C)C)CC4)nc3c2C(C)C)cn2ncnc2c1C', 'IC50', 0.72),
  ('Cc1c(-c2[nH]c3ccc(N4CCC(N(C)Cc5ncccn5)CC4)nc3c2C(C)C)cn2ncnc2c1C [Example 78]', 'IC50', 10),
  ('Cc1cc(-c2[nH]c3ccc(C4CCC(N5CC6(COC6)C5)CC4)nc3c2C(C)C)cc(C)n1 (centres unmarked) [Example 286]', 'IC50', 9.2);

I = COc1cc(-c2[nH]c3ccc(C4CCC(NC5COC5)CC4)nc3c2C(C)C)cn2ncnc12 (centres unmarked) [Example 186]
II = Cc1c(-c2[nH]c3ccc(N4CCN(C(C)C)CC4)nc3c2C(C)C)cn2ncnc2c1C
III = COc1cc(-c2[nH]c3ccc(C4CCC(NCc5cnco5)CC4)nc3c2C(C)C)cn2ncnc12 (centres unmarked) [Example 206]
IV = Cc1cnc(CNC2CCC(c3ccc4[nH]c(-c5cn6ncnc6c(C)c5C)c(C(C)C)c4n3)CC2)cn1 (centres unmarked) [Example 357]
Hey, quick one: sort these by IC50, largest value first please. # format: label list in the order the request specifies
III, I, IV, II

----------
molecular target: human TLR7 (Homo sapiens (Human)); test: TLR7 inhibition reporter assay (HEK-Blue SEAP); type: cell-based; conditions: HEK-Blue cells overexpressing human TLR7, SEAP reporter, gardiquimod 7.5 μM
Sequence (Q9NYK1 27-1049): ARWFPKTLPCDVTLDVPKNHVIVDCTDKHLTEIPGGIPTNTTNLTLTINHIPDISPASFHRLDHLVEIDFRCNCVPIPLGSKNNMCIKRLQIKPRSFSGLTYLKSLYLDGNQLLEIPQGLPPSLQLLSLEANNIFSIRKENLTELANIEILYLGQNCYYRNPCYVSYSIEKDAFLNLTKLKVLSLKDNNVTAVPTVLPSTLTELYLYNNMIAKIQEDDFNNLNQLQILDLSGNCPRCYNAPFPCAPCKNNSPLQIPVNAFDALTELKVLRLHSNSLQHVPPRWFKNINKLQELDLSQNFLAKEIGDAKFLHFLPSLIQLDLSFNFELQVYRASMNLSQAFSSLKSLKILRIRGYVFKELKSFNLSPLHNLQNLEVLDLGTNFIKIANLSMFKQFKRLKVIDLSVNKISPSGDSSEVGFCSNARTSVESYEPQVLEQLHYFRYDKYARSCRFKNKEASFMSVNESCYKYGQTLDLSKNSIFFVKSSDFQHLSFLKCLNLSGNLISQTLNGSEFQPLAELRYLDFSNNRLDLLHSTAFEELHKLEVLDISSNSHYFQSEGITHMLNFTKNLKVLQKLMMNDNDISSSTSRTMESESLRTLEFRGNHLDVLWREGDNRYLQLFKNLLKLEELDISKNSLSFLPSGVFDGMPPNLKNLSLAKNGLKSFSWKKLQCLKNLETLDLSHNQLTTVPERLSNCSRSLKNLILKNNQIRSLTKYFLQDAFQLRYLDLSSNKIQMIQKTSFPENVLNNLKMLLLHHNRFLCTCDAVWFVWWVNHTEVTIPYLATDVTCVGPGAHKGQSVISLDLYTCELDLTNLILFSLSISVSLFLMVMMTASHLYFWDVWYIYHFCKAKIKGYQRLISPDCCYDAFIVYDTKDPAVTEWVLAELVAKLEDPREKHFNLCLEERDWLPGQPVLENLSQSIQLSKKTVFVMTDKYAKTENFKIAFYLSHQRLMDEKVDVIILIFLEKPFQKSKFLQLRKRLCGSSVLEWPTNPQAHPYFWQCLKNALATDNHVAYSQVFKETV
pIC50: −log10 of the molar value.
OBSERVABLE: pIC50

Example results:
INSERT INTO assay_data (compound, observed_measurement) VALUES
  ('CNC(=O)CN(C)C1CCC(c2ccc3[nH]c(-c4cn5ncnc5c(C)c4C)c(C(C)C)c3n2)CC1 (stereo not drawn) [Example 422]', 7.82),
  ('Cc1c(-c2[nH]c3ccc(C4CCC(N(CCO)C5COC5)CC4)nc3c2C(C)C)cn2ncnc2c1C (stereo not drawn) [Example 444]', 7.80),
  ('Cc1cc(-c2[nH]c3ccc(C4CCN(C5COC5)CC4)nc3c2C(C)C)cn2ncnc12 [Example 534]', 8.92),
  ('COc1cc(-c2[nH]c3cc(C)c(C4CCN(CC(=O)N(C)C)CC4)nc3c2C(C)C)cn2ncnc12 [Example 584]', 9.62),
  ('CCN(CC(=O)N(C)C)C1CCC(c2ccc3[nH]c(-c4cn5ncnc5c(C)c4C)c(C(C)C)c3n2)CC1 (stereo not drawn) [Example 462]', 8.16);

P = CC(=O)N(C)C1CCC(c2ccc3[nH]c(-c4cn5ncnc5c(C)c4C)c(C(C)C)c3n2)CC1 (stereo not drawn) [Example 439]
Q = Cc1cc(-c2[nH]c3cc(F)c(C4CCN(C(=O)CN(C)C)CC4)nc3c2C(C)C)cn2ncnc12 [Example 585]
Quick one: lower pIC50, P or Q ? Kindly state the label of the option you pick.
P

----------
target: human TLR8 (Homo sapiens (Human), UniProt Q9NR97); test: TLR8 inhibition reporter assay (HEK-Blue SEAP); conditions: read-out: TLR8 IC50; HEK-Blue cells overexpressing human TLR8, SEAP reporter, R848 15.9 μM
pIC50: −log10 of the molar value.
OBSERVABLE: pIC50

I = COc1cc(-c2[nH]c3ccc(C4CC(N(C)CCS(C)(=O)=O)C4)nc3c2C(C)C)cn2ncnc12 (stereo not shown) [Example 642]
II = Cc1c(-c2[nH]c3ccc(C4CC(NCCS(C)(=O)=O)C4)nc3c2C(C)C)cn2ncnc2c1C (stereo not shown)
Hi, I'm comparing I with II and wondering which one has the bigger number for pIC50. Any idea? Use the label to indicate which entry you chose.
II
(II: 8.70, I: 7.59)

----------
biological target: human TLR7 (Homo sapiens (Human)); test: TLR7 inhibition reporter assay (HEK-Blue SEAP); assay type: cell-based; settings: HEK-Blue cells overexpressing human TLR7, gardiquimod 7.5 μM stimulation, SEAP reporter
pIC50: −log10 of the molar value.
OBSERVABLE: pIC50

INSERT INTO measurements (molecule, observed_measurement) VALUES
  ('COc1cc(-c2[nH]c3ccc(N4CC(N)C4)nc3c2C(C)C)cn2ncnc12', 9.22);

I = COc1cc(-c2[nH]c3ccc(N4CCN(CCC(C)C)CC4)nc3c2C(C)C)cn2ncnc12
II = COc1cc(-c2[nH]c3ccc(N4CCN(C(=O)CN(C)C)CC4)nc3c2C(C)C)cn2ncnc12
III = Cc1c(-c2[nH]c3ccc(N4CCN(CCC#N)CC4)nc3c2C(C)C)cn2ncnc2c1C
Rank the items in ascending order with respect to pIC50. Lab note: final answer is the ordered label list.
III, I, II
(III: 7.01, I: 8.72, II: 9.24)

P = COc1cc(-c2[nH]c3cc(C)c(C4CCC(N5CCC5)CC4)nc3c2C(C)C)cn2ncnc12 (centres unmarked) [Example 325]
Q = COc1cc(-c2[nH]c3ccc(N4CCN(C5CCC5)CC4)nc3c2C(C)C)cn2ncnc12
R = Cc1c(-c2[nH]c3ccc(C4CCC(N5CCS(=O)(=O)CC5)CC4)nc3c2C(C)C)cn2ncnc2c1C (centres unmarked) [Example 382]
S = COc1cc(-c2[nH]c3cc(C)c(C4CCC(N5CC(F)(F)C5)CC4)nc3c2C(C)C)cn2ncnc12 (centres unmarked) [Example 337]
Reorder the items by pIC50, least to greatest. Put the labels in the order asked and list them.
S, R, Q, P

----------
molecular target: human TLR7 (Homo sapiens (Human)); assay: TLR7 inhibition reporter assay (HEK-Blue SEAP); assay type: cell-based; conditions: HEK-Blue cells overexpressing human TLR7, SEAP reporter, gardiquimod 7.5 μM
OBSERVABLE: IC50 (nM)

Solved cases (2 shown):
INSERT INTO results (molecule, observed_measurement) VALUES
  ('Cc1c(-c2[nH]c3ccc(C4CC(NCC5(C)COC5)C4)nc3c2C(C)C)cn2ncnc2c1C (stereo not drawn) [Example 637]', 3.8),
  ('COc1cc(-c2[nH]c3ccc(C4CCN(C(=O)CN(C)C)CC4)nc3c2C(C)C)cn2ncnc12 [Example 549]', 1.8);

I = CC(C)c1c(-c2cn(C)c3ncccc23)[nH]c2ccc(CCC3CN(C(=O)CN(C)C)C3)nc12 [Example 703]
II = COc1cc(-c2[nH]c3ccc(C4CN(C(=O)CN(C)C)CCO4)nc3c2C(C)C)cn2ncnc12 (stereo not drawn) [Example 668]
III = COc1cc(-c2[nH]c3cc(F)c(C4CCN(C5COC5)CC4)nc3c2C(C)C)cn2ncnc12 [Example 574]
IV = COc1cc(-c2[nH]c3ccc(C4CCC(NCC5(C)COC5)C4)nc3c2C(C)C)cn2ncnc12 (stereo not drawn) [Example 728]
V = Cc1c(-c2[nH]c3ccc(C4CC5(C4)CN(C(=O)CCN(C)C)C5)nc3c2C(C)C)cn2ncnc2c1C [Example 746]
# sort list by recorded IC50, greatest to least Returns: the labels arranged in the requested order.
I, III, II, V, IV
(I: 8.9 nM, III: 3 nM, II: 1.7 nM, V: 1.1 nM, IV: 0.74 nM)

----------
target: human TLR8 (Homo sapiens (Human), UniProt Q9NR97); test: TLR8 inhibition reporter assay (HEK-Blue SEAP); settings: read-out: TLR8 IC50; HEK-Blue cells overexpressing human TLR8, R848 15.9 μM stimulation, SEAP reporter;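 further: SEAP driven by IFN-β minimal promoter carrying NF-κB and AP-1 sites, compounds dosed 0.05 nM to 50 µM for 22 h, inhibition scaled between agonist-plus-DMSO and reference-inhibitor wells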
OBSERVABLE: IC50 (nM)

Please review the entries below; each comes with its answer.
INSERT INTO assay_data (compound, observed_measurement) VALUES
  ('COc1cc(-c2[nH]c3ccc(N4CCN(CC(C)(C)O)CC4)nc3c2C(C)C)cn2ncnc12', 0.28),
  ('CC(C)c1c(-c2cn(C)c3ncccc23)[nH]c2ccc(C3CCC(N(C)CC(=O)N(C)C)CC3)nc12 (stereo not shown) [Example 200]', 8.5);

1 = Cc1c(-c2[nH]c3ccc(N4CCN(CCCS(C)(=O)=O)CC4)nc3c2C(C)C)cn2ncnc2c1C
2 = COc1cc(-c2[nH]c3cc(F)c(C4CCC(NC5COC5)CC4)nc3c2C(C)C)cn2ncnc12 (stereo not shown) [Example 345]
Lowest IC50? choose 1 or 2 Answer by stating the label of the chosen item.
1

----------
biological target: human TLR9 (Homo sapiens (Human), UniProt Q9NR96); experiment: TLR9 inhibition reporter assay (HEK-Blue SEAP); conditions: read-out: TLR9 IC50; HEK-Blue cells overexpressing human TLR9, SEAP reporter, ODN2006 5 nM
Sequence (Q9NR96 26-1032): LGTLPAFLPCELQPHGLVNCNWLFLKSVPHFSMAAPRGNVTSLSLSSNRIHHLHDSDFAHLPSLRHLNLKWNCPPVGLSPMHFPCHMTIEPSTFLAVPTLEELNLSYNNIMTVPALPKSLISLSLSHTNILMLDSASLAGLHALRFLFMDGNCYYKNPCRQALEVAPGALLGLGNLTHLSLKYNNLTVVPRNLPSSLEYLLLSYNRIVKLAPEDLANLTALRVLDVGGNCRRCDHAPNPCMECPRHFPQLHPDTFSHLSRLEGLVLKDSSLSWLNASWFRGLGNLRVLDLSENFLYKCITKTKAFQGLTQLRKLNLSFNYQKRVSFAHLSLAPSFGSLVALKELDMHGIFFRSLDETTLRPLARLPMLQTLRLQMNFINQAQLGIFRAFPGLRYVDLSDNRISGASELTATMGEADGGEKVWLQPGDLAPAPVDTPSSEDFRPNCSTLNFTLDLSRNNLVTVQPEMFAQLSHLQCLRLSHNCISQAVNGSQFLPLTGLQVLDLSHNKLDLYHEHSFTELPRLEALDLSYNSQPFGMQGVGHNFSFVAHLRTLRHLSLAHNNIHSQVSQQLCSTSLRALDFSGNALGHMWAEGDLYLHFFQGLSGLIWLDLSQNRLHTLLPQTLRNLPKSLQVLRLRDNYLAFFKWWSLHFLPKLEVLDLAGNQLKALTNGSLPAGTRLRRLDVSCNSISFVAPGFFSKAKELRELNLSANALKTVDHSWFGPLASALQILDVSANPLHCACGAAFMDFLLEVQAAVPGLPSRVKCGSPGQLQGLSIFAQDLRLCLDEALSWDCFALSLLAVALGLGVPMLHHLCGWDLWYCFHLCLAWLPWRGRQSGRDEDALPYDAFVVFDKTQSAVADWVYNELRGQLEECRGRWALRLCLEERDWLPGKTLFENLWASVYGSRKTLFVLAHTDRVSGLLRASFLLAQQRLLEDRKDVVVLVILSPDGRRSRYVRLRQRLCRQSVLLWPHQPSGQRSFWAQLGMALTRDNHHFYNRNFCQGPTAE
OBSERVABLE: IC50 (µM)

INSERT INTO results (molecule, observed_measurement) VALUES
  ('Cc1c(-c2[nH]c3ccc(CCC4CN(CC(C)(C)O)C4)nc3c2C(C)C)cn2ncnc2c1C [Example 701]', 1.75);

a = Cc1c(-c2[nH]c3ccc(C4CC(N(C)CC(=O)N(C)C)C4)nc3c2C(C)C)cn2ncnc2c1C (stereo not shown) [Example 622]
b = Cc1c(-c2[nH]c3ccc(C4CCC(NCC(C)(C)S(C)(=O)=O)CC4)nc3c2C(C)C)cn2ncnc2c1C (stereo not shown) [Example 454]
c = Cc1c(-c2[nH]c3ccc(N4CCN(C(C)C)[C@@H](C)C4)nc3c2C(C)C)cn2ncnc2c1C [Example 792]
Which order do these items take when sorted by rising IC50? List them. Please list the labels in the order you were asked to rank them.
b, a, c
(b: 2.39 µM, a: 5.07 µM, c: 8.55 µM)
